Test system: HOP-92 NSCLC
ASSAY_SUMMARY: NCI-60 one-dose screen, 48 h
TEST_SETTINGS: 10 µM unless noted
Compounds without any hit were thinned out: in the full panel of roughly 83,000, 20% have a hit. The source made the active and inactive calls. The calls were made as follows: active = growth percent below 10; inactive = the rest.
Pick from label 1 for active, label 0 for inactive when you respond.

Exercise: Answer briefly: the call reported for COc1ccc(C(=O)c2cc(C(=O)/C=C/c3c(Cl)cccc3Cl)c3cc(C)ccn23)cc1 in this assay.
Key: label 0

Exercise: Answer briefly: the call reported for CC(C)(C)Nc1nc2c(OCCc3ccccc3)cccn2c1-c1ccc(Cl)cc1 in this assay.
Key: label 1

Exercise: Answer briefly: the call reported for C#Cc1nc(C2=C(C)/C(=N/OCc3ccccc3)CC2)cs1 in this assay.
Key: label 1

Exercise: Answer briefly: the call reported for Clc1ccc2c(NCCCn3ccnc3)c3oc4ccc(Cl)cc4c3nc2c1 in this assay.
Key: label 0

Exercise: Answer briefly: the call reported for Cc1ccccc1NC(=O)/C=C/c1ccc(OCCOc2ccc3c(C)cc(=O)oc3c2)cc1 in this assay.
Key: label 0

Exercise: Answer briefly: the call reported for O=C(CSc1nccc(=O)[nH]1)Nc1ccc(-c2nc3ccccc3[nH]2)cc1 in this assay.
Key: label 0

Exercise: Answer briefly: the call reported for COc1cc(/C=C/C(=O)c2ccc(Cl)cc2)ccc1Oc1nc(NCCO)nc(N2CCOCC2)n1 in this assay.
Key: label 0

Exercise: Answer briefly: the call reported for CC(=NNc1ncnc2ccccc12)c1ccc(S(C)(=O)=O)cc1 in this assay.
Key: label 0

Exercise: Answer briefly: the call reported for C#Cc1nc(C2=C(C)C(=O)/C(=N/OC(C)=O)C2)cs1 in this assay.
Key: label 0

Exercise: Answer briefly: the call reported for O=C(CSc1nc2sc3c(c2c(=O)n1-c1ccc(Cl)cc1)CCCC3)NNC(=O)Nc1ccc(Cl)c(C(F)(F)F)c1 in this assay.
Key: label 1

====

Test system: RPMI-8226 leukemia
ASSAY_SUMMARY: NCI-60 one-dose screen, 48 h (100 = growth as untreated, 0 = no growth, -100 = all killed)
TEST_SETTINGS: 10 µM unless noted
The panel holds about 83,000 compounds, 20% with a hit somewhere; the sample as a whole holds those more often. Active and inactive are the calls of the source. Rule for the calls: active = growth percent below 10; inactive = the rest.
Assign growth to each entry below.

Exercise: What does the data say about its growth? Entry: CN(C)c1ccc(/C=C2\Cc3c(F)ccc(Br)c3C2=O)cc1
Key: 93.1% (inactive)

Exercise: What does the data say about its growth? Entry: C[C@@H](Nc1c(C#N)cnc2ccc(-c3cnc(N)nc3)cc12)c1ccccc1
Key: -26.9% (active)

Exercise: What does the data say about its growth? Entry: C#Cc1nc(C2=C(C)C(OC(=O)CCC(=O)O)CC2)cs1 (stereo not given)
Key: 102% (inactive)

Exercise: What does the data say about its growth? Entry: COc1ccc([C@@H]2c3[nH]c4ccccc4c3CC3C(=O)N(C4CCN(Cc5c(F)cccc5F)CC4)CC(=O)N32)c(OC)c1 (stereo not given in full)
Key: 41.3% [5.26 µM] (inactive)

Exercise: What does the data say about its growth? Entry: O=C(N/N=C/c1ccc([N+](=O)[O-])s1)c1[nH]c2ccc(Br)cc2c1-c1ccccc1
Key: 0.935% (active)

Exercise: What does the data say about its growth? Entry: COc1ccccc1C(=O)CSc1nc(Nc2ccc(S(N)(=O)=O)cc2)c2ccccc2n1
Key: 90.8% (inactive)

Exercise: What does the data say about its growth? Entry: CS(=O)(=O)c1ccc(-c2nc3ccccn3c2/C=N/Nc2nc(-c3ccc(Br)cc3)cs2)cc1
Key: 94.1% (inactive)

Exercise: What does the data say about its growth? Entry: CC(=O)Oc1ccccc1C(=O)Nc1ccc(C(=O)/C=C/c2ccncc2)cc1
Key: -25.8% (active)

Exercise: What does the data say about its growth? Entry: O=C(Nc1nc2ccc(O)cc2s1)c1cccc(C(F)(F)F)c1
Key: 46.9% (inactive)

Exercise: What does the data say about its growth? Entry: NS(=O)(=O)c1cccc(Nc2nc(SCC(=O)c3ccc(Cl)cc3)nc3ccccc23)c1
Key: 65.4% (inactive)

Exercise: What does the data say about its growth? Entry: O=C(c1ccc(Cl)cc1)C1[C@H](c2ccc(Cl)cc2)[C@@H](c2ccccc2)NC12C(=O)Nc1ccc(Br)cc12 (stereo not given in full)
Key: 18.2% (inactive)

Exercise: What does the data say about its growth? Entry: Clc1ccc2oc3c(NCCCN4CCOCC4)c4ccccc4nc3c2c1
Key: 11.4% (inactive)

Exercise: What does the data say about its growth? Entry: N=C1CC(=O)NN1C(=O)CSc1nc2sc3c(c2c(=O)n1-c1ccc(Cl)cc1)CCCC3
Key: 102% (inactive)

Exercise: What does the data say about its growth? Entry: NS(=O)(=O)c1ccc(Nc2nc(SCC(=O)c3ccc(Cl)cc3)nc3ccccc23)cc1
Key: 83.6% (inactive)

Exercise: What does the data say about its growth? Entry: C#Cc1nc(C2=C(C)/C(=N/OCc3ccccc3)CC2)cs1
Key: -44.1% (active)

Exercise: What does the data say about its growth? Entry: O=c1[nH]c2ccccc2cc1CSc1ccccc1Nc1nccc(-c2ccc(C(F)(F)F)cc2)n1
Key: 62.6% (inactive)

Exercise: What does the data say about its growth? Entry: Clc1ccc(Cc2nnc3sc(-c4cccnc4)nn23)cc1
Key: 97.5% (inactive)

Exercise: What does the data say about its growth? Entry: Clc1ccc2c(NCCCn3ccnc3)c3oc4ccccc4c3nc2c1
Key: 26.4% (inactive)

Exercise: What does the data say about its growth? Entry: c1ccc2c(NCCCN3CCOCC3)c3oc4ccccc4c3nc2c1
Key: -14.4% (active)

Exercise: What does the data say about its growth? Entry: COc1ccc(-c2nc3ccc(-c4nnc(SCC(=O)Nc5ccc(C(=O)/C=C/c6ccccc6)cc5)o4)cc3[nH]2)cc1OC
Key: 64% (inactive)

====

Tested on: MDA-MB-435 melanoma
ASSAY_SUMMARY: NCI-60 one-dose screen, 48 h
TEST_SETTINGS: 10 µM unless noted
This is part of a sample that, as a whole, favours compounds with a hit. Of some 83,000 tested, about 20% had one in any assay. Calls of active or inactive are those of the source. The calls were made as follows: active = growth percent below 10; inactive = the rest.
Pick from T = active, F = inactive when you respond.

Exercise: Answer briefly: the call reported for COc1cc(/C=C/C(=O)c2ccc(Cl)cc2)ccc1Oc1nc(NCCO)nc(N2CCOCC2)n1 in this assay.
Key: F

Exercise: Answer briefly: the call reported for CC(C)(O)c1cncc(-c2ccc3ncnc(N4CCc5cc(F)c(Cl)cc54)c3c2)c1 in this assay.
Key: F

Exercise: Answer briefly: the call reported for O=C(N/N=C/c1ccc([N+](=O)[O-])s1)c1[nH]c2ccc(Br)cc2c1-c1ccccc1 in this assay.
Key: T

Exercise: Answer briefly: the call reported for O=c1/c(=C\c2ccc(-c3ccccc3)o2)sc2nc(-c3ccccc3)nn12 in this assay.
Key: F

Exercise: Answer briefly: the call reported for O=C(CN1CCOCC1)NNc1ncnc2ccccc12 in this assay.
Key: F

Exercise: Answer briefly: the call reported for COc1cc2cc(Oc3ccc(NC(=O)c4cccc(C(F)(F)F)c4)cc3)c(C)nc2cc1OCCN1CCCCC1 in this assay.
Key: T

Exercise: Answer briefly: the call reported for Clc1ccc(Cc2nnc3sc(-c4cccnc4)nn23)cc1 in this assay.
Key: F

Exercise: Answer briefly: the call reported for COc1cc(-c2ccc3ncnc(NC(C)c4ccccc4)c3c2)cnc1OC (stereo not given) in this assay.
Key: F

Exercise: Answer briefly: the call reported for COc1cc(/C=C/C(=O)c2cc(OC)c(OC)c(OC)c2)ccc1Oc1nc(NCCO)nc(N2CCOCC2)n1 in this assay.
Key: T

Exercise: Answer briefly: the call reported for N/C(=N\c1nc2c(Br)cccc2s1)C(Br)Br in this assay.
Key: T

Exercise: Answer briefly: the call reported for COc1cc2nc(-c3ccc(C(F)(F)F)cc3)cc(OCCCNCC3CCCO3)c2cc1OC (stereo not given) in this assay.
Key: T

Exercise: Answer briefly: the call reported for Cc1ccc(/C=C/c2nn3c(-c4ccco4)nnc3s2)cc1C in this assay.
Key: F

Exercise: Answer briefly: the call reported for O=C(N/N=C/c1cccs1)c1[nH]c2ccc(Br)cc2c1-c1ccccc1 in this assay.
Key: T

Exercise: Answer briefly: the call reported for COc1ccc(NC2=CC(=O)C(C)=C(C)C2=O)cc1 in this assay.
Key: T

Exercise: Answer briefly: the call reported for Cc1nc(-c2cc3ccccc3oc2=O)ccc1C(=O)/C=C/c1ccccn1 in this assay.
Key: F

Exercise: Answer briefly: the call reported for CCOC(=O)c1c(Nc2ccccc2)nn2c(N)c(C#N)c(-c3ccc(Cl)cc3)nc12 in this assay.
Key: F

Exercise: Answer briefly: the call reported for Cc1cccc2sc(/N=C(\N)C(Br)Br)nc12 in this assay.
Key: F

Exercise: Answer briefly: the call reported for C#Cc1nc(C2=C(C)C(OC(=O)CCC(=O)O)CC2)cs1 (stereo not given) in this assay.
Key: F

Exercise: Answer briefly: the call reported for COc1ccccc1/C=C/C=N/NC1=NC2C(S1)N(C)C(=O)N2C (stereo not given) in this assay.
Key: T

Exercise: Answer briefly: the call reported for Fc1ccc(-c2cc3nc(C(Cl)Cl)nc(-c4ccccc4)n3n2)cc1 in this assay.
Key: T

Exercise: Answer briefly: the call reported for CC(C)(C)Nc1nc2c(OCCc3ccccc3)cccn2c1-c1ccccc1Cl in this assay.
Key: T

Exercise: Answer briefly: the call reported for CC(C)(C)Nc1nc2c(OCCc3ccccc3)cccn2c1-c1ccc(Cl)cc1 in this assay.
Key: F

Exercise: Answer briefly: the call reported for O=C(CSc1nc2sc3c(c2c(=O)n1-c1ccc(Cl)cc1)CCCC3)N/N=C/c1ccc(F)cc1 in this assay.
Key: F

Exercise: Answer briefly: the call reported for CCCCN1C(=O)/C(=c2\sc3n(c2=O)C2C(NN=3)N(CC)C(=O)N2CC)c2cc(Cl)ccc21 (stereo not given) in this assay.
Key: T

Exercise: Answer briefly: the call reported for O=C1c2c(c3c4cc(Br)ccc4[nH]c3c3ccc4ccccc4c23)C(=O)N1CCO in this assay.
Key: F

Exercise: Answer briefly: the call reported for O=C1Nc2cc(Cl)ccc2/C1=C\c1ccc(OCc2ccc(Br)cc2F)cc1 in this assay.
Key: T

Exercise: Answer briefly: the call reported for O=c1[nH]c2ccccc2cc1CSc1ccccc1Nc1nccc(-c2ccc(C(F)(F)F)cc2)n1 in this assay.
Key: F

Exercise: Answer briefly: the call reported for NS(=O)(=O)c1ccc(Nc2nc(SCC(=O)c3ccc(Cl)cc3)nc3ccccc23)cc1 in this assay.
Key: F

Exercise: Answer briefly: the call reported for C#Cc1nc(C2=C(C)C(O)CC2)cs1 (stereo not given) in this assay.
Key: F

Exercise: Answer briefly: the call reported for OC1CCN(CCCOc2c3ccccc3nc3c2oc2ccc(Cl)cc23)CC1 in this assay.
Key: T

Exercise: Answer briefly: the call reported for COc1ccc(Cc2nn(CC(=O)N/N=C/c3ccc(Cl)cc3)c(=O)c3c(C)noc23)cc1 in this assay.
Key: F

Exercise: Answer briefly: the call reported for N#Cc1nc(-c2ccccc2)oc1S(N)(=O)=O in this assay.
Key: F

Exercise: Answer briefly: the call reported for COc1cc(-c2nc3ccc(-c4nnc(SCC(=O)Nc5ccc(C(=O)/C=C/c6ccc(Cl)cc6)cc5)o4)cc3[nH]2)cc(OC)c1OC in this assay.
Key: F

Exercise: Answer briefly: the call reported for Cc1[nH]nc2ncc(C#Cc3cncc(C(=O)Nc4ccc(CN5CCN(C)CC5)c(C(F)(F)F)c4)c3)cc12 in this assay.
Key: F

Exercise: Answer briefly: the call reported for CN(C)c1ccc(-c2c(NC(C)(C)C)nc3c(OCCc4ccccc4)cccn23)cc1 in this assay.
Key: F

Exercise: Answer briefly: the call reported for CC(=O)Oc1ccccc1C(=O)Nc1cc(C(C)C)ccc1C in this assay.
Key: F

Exercise: Answer briefly: the call reported for CN(C)CCCNc1c2ccccc2nc2c1oc1ccc(Cl)cc12 in this assay.
Key: F

Exercise: Answer briefly: the call reported for CN(C)c1ccc(/C=C2\Cc3c(F)ccc(Br)c3C2=O)cc1 in this assay.
Key: F

Exercise: Answer briefly: the call reported for CCC/C=C/C=C/C(=O)N[C@@H](Cc1cc(F)cc(F)c1)C(=O)N[C@@H]1C(=O)N2CCC[C@H]2C(=O)N2CCCC[C@H]2C(=O)N[C@@H](C)C(=O)N2C[C@H](C)C[C@H]2C(=O)O[C@H]1C in this assay.
Key: F

Exercise: Answer briefly: the call reported for Nc1cc(-c2c[nH]c3ccccc23)nc2cc(-c3c[nH]c4ccccc34)nn12 in this assay.
Key: F
